Hey, just so you know, these numbers are from ChEMBL document CHEMBL3045711.

Target: Aldehyde oxidase 1 (Oryctolagus cuniculus)
Sequence (P80456 whole entry): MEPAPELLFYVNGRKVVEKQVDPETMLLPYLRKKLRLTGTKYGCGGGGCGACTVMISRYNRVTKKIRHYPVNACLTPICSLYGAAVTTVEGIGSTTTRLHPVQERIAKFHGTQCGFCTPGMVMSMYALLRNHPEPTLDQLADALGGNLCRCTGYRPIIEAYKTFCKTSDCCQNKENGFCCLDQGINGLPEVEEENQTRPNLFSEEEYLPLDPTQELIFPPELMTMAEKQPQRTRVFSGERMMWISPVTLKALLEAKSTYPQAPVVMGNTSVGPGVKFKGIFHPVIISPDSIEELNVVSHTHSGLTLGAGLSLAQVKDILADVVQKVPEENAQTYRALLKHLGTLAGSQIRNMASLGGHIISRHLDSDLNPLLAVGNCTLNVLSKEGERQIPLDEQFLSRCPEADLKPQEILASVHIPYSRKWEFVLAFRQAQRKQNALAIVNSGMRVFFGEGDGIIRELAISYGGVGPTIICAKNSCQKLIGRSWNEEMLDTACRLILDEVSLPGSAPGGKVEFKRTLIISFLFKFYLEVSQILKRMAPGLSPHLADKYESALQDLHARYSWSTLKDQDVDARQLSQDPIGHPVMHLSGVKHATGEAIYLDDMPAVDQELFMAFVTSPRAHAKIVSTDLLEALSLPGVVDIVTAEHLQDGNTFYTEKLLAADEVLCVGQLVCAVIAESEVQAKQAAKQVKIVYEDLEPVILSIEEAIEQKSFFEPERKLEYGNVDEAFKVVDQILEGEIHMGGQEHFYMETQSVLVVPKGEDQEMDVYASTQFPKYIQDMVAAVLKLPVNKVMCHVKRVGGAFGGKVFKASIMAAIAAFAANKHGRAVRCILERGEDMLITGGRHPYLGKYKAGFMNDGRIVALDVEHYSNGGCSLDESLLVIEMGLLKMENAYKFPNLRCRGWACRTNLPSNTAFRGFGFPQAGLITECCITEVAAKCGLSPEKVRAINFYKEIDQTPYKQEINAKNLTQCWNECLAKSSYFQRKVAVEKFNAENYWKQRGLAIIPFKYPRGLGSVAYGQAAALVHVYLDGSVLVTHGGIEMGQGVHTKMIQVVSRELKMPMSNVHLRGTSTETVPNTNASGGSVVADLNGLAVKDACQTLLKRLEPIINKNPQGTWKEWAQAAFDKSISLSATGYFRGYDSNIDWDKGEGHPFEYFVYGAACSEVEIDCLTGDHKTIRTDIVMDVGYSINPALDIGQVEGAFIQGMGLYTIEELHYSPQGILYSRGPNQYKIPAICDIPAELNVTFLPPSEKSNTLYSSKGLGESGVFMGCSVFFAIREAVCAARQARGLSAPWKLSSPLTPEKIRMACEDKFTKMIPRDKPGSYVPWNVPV
Format: ADME, tissue-based, Liver, Cytosol
Description: Inhibition of Oryctolagus cuniculus (rabbit) AOX in liver cytosol
readout: pIC50
Scale for pIC50: -log10 of concentration given in mol/L; no unit attached.

Reference set (3 entries):
O=Cc1ccco1 = 3.15
O=Cc1cccnc1Cl = 3.46
O=Cc1ccc(O)cc1 [4-HYDROXYBENZALDEHYDE] = 3.24

The molecule O=Cc1ccoc1 , when measured on Aldehyde oxidase 1 (Oryctolagus cuniculus), yielded pIC50 of 3.59

The molecule O=Cc1ccc(Cl)nc1 , when measured on Aldehyde oxidase 1 (Oryctolagus cuniculus), yielded pIC50 of 3.14

The molecule O=Cc1ccccc1 , when measured on Aldehyde oxidase 1 (Oryctolagus cuniculus), yielded pIC50 of 3.18

The molecule O=Cc1cnc(Cl)s1 , when measured on Aldehyde oxidase 1 (Oryctolagus cuniculus), yielded pIC50 of 3.44

The molecule O=CC1CCOC1 (centres undefined) [TETRAHYDROFURAN-3-CARBALDEHYDE] , when measured on Aldehyde oxidase 1 (Oryctolagus cuniculus), yielded pIC50 of 3.44

The molecule O=Cc1cncs1 , when measured on Aldehyde oxidase 1 (Oryctolagus cuniculus), yielded pIC50 of 3.05

The molecule O=Cc1cccnc1 , when measured on Aldehyde oxidase 1 (Oryctolagus cuniculus), yielded pIC50 of 3.22

The molecule O=C(c1ccc(OCCN2CCCCC2)cc1)c1c(-c2ccc(O)cc2)sc2cc(O)ccc12 , when measured on Aldehyde oxidase 1 (Oryctolagus cuniculus), yielded pIC50 of 2.81
